- Tested on: IL-6 production from synovial membrane cells of RA patients
- assay: Inhibitory activity against IL-6 production, synovial membrane cells from RA patient
- Type: cell-based, human
- experimental_conditions: synovial membrane cells from RA patient

{"compound": "CCN1CC/C(=C\\c2cc(C(C)(C)C)c(O)c(C(C)(C)C)c2)S1(=O)=O [Compound Ia]", "IC50": "10 µM"}

Data credit: patent US6743923B2
